Reference for the values: PubChem BioAssay (NCATS)

system: SKOV3; test: Primary qHTS to identify gynecologic anti-cancer compounds using libraries of approved drugs and bioactive compounds (AID 1345084); conditions: Gynecologic cancer cell panel viability, ATPlite luminescence, 48 h; series mostly up to 57.5 µM; further: nearly all actives have a fitted effect of over 55% in size
Records with an inconclusive call do not appear. The source made the active and inactive calls. The call rests on the fitted dose curve; in most records, active means well fitted cell-killing curve with a large enough effect; inconclusive means small, poorly fitted or top-dose-only effect, or effect the other way; inactive means flat fitted curve, though single readings scatter.
Classes used: true for active, false for inactive

>>> answer_label("Oc1c(I)cc(I)c2cccnc12")
"false"
>>> answer_label("CCCCCCCCCCCCCCCC[N+](C)(C)CCN(Cc1ccc(OC)cc1)c1ncccn1")
"true"
>>> answer_label("NC(CO)(CO)CO")
"false"
>>> answer_label("NCCC(O)(P(=O)(O)O)P(=O)(O)O")
"false"
>>> answer_label("Cc1c(C(N)=O)cc([N+](=O)[O-])cc1[N+](=O)[O-]")
"false"
>>> answer_label("CCN(CCCc1ccccc1)CCCc1ccccc1")
"false"
>>> answer_label("Oc1c(Cl)cc(Cl)cc1Sc1cc(Cl)cc(Cl)c1O")
"false"
>>> answer_label("CCC(C(=O)OCCN(CC)CC)c1ccccc1 (configuration not stated)")
"false"
>>> answer_label("CC1=C(C(=O)OC(C)C)C(c2cccc([N+](=O)[O-])c2)C(C(=O)OC2CN(C(c3ccccc3)c3ccccc3)C2)=C(N)N1 (configuration not stated)")
"false"
>>> answer_label("NC[C@H]1O[C@H](O[C@H]2[C@H](O)[C@@H](O[C@H]3O[C@H](CO)[C@@H](O)[C@H](N)[C@H]3O)[C@H](N)C[C@@H]2N)[C@H](N)[C@@H](O)[C@@H]1O")
"false"
>>> answer_label("CC(Cc1ccccc1)(NC(=O)CN)c1ccccc1 (configuration not stated)")
"false"
>>> answer_label("O=C1OC2(c3ccc(O)cc3Oc3cc(O)ccc32)c2ccccc21")
"false"
